- test.target: T1, DR4 (TRAIL-R1) on cancer cells (human, UniProt O00220 24-468)
- T1 sequence: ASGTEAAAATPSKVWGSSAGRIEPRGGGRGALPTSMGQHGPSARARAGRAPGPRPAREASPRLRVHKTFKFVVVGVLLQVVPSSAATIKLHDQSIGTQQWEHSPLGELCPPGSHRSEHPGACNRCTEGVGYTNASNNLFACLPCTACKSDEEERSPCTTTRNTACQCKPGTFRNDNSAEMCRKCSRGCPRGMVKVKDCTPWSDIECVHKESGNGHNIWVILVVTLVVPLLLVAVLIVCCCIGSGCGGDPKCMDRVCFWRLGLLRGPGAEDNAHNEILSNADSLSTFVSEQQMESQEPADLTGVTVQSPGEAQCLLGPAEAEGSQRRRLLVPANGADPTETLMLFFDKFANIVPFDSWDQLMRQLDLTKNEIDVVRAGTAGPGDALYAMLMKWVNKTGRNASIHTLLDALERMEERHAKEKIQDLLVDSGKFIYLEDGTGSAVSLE
- assay.summary: cell-based or functional assay
Sorting guide: entries reporting Colo205 % killing (% of TRAIL activity) beneath -20% go in the true (1) pile, the rest go in the false (0) pile.

INSERT INTO assay_data (binder, group_label) VALUES
  ('71p88P1A1 (designed binder) EPPTQKPKKIVNAKKDVVNTKMFEELKSRLDTLAQEVALLKEQQALQTVCLKGTKVHMKCFLAFTQTKTFHEASEDCISRGGTLSTPQTGSENDALYEYLRQSVGNEAEIWLGLNGWMDGSGWVDMTGARIAYKNWETEITAQPDGGRLWRWENCAVLSGAANGKWFDKRCRDQLPYICQFGIV', 'false (0)'),
  ('71p88P1B3 (designed binder) EPPTQKPKKIVNAKKDVVNTKMFEELKSRLDTLAQEVALLKEQQALQTVCLKGTKVHMKCFLAFTQTKTFHEASEDCISRGGTLSTPQTGSENDALYEYLRQSVGNEAEIWLGLNGWLEGSGWVDMTGARIAYKNWETEITAQPDGGVQWRWENCAVLSGAANGKWFDKRCRDQLPYICQFGIV', 'false (0)'),
  ('71p88P1F2 (designed binder) EPPTQKPKKIVNAKKDVVNTKMFEELKSRLDTLAQEVALLKEQQALQTVCLKGTKVHMKCFLAFTQTKTFHEASEDCISRGGTLSTPQTGSENDALYEYLRQSVGNEAEIWLGLNGWLEGSGWVDMTGARIAYKNWETEITAQPDGGFPARWENCAVLSGAANGKWFDKRCRDQLPYICQFGIV', 'false (0)'),
  ('71p88P1B4 (designed binder) EPPTQKPKKIVNAKKDVVNTKMFEELKSRLDTLAQEVALLKEQQALQTVCLKGTKVHMKCFLAFTQTKTFHEASEDCISRGGTLSTPQTGSENDALYEYLRQSVGNEAEIWLGLNGWLEGYGWVDMTGARIAYKNWETEITAQPDGGAERAWENCAVLSGAANGKWFDKRCRDQLPYICQFGIV', 'true (1)'),
  ('71p88P1D9 (designed binder) EPPTQKPKKIVNAKKDVVNTKMFEELKSRLDTLAQEVALLKEQQALQTVCLKGTKVHMKCFLAFTQTKTFHEASEDCISRGGTLSTPQTGSENDALYEYLRQSVGNEAEIWLGLNGWVAGVGWVDMTGARIAYKNWETEITAQPDGGGGWRWENCAVLSGAANGKWFDKRCRDQLPYICQFGIV', 'true (1)');

Recorded values, source patent US20120021995A1.
